target: human GLP-1 receptor (human, UniProt P43220 24-463); assay: cell-based or functional assay
Numbered stars: 1 amine (or outer) side, 2 acyl side, 3 side chain; on linkers, the order of the positions; unused ones are H or OH. Square brackets hold non-standard residues; d marks the D form. Side chains are listed from the residue outwards. Ends that are not written are not given here. γGlu = O=C(O)[C@H](CCC(=O)[*:2])N[*:1]; x53 = not defined here; Aib = CC(C)(N)C(=O)O
recorded_metric: EC50 hGLP-1R (cAMP) (pM)

* H[Aib]QGTFTSDLSKQK([γGlu-x53])DSQAAQDFIEWLKAGGPSSGAPPPS-NH2 (reading uncertain) [SEQ ID NO: 155] | 2.5
* H[Aib]QGTFTSDLSKQK([γGlu-x53])DSKAAQDFIEWLKAGGPSSGAPPPS-NH2 (reading uncertain) [SEQ ID NO: 31] | 1.7
* H[Aib]HGTFTSDLSKQK([γGlu-γGlu-x53])DEEAARLFIEWLKAGGPSSGAPPPS-NH2 (reading uncertain) [SEQ ID NO: 227] | 1.4
